In this section we review reported k2 values for a set of binders.
- TESTED_SYSTEM: T1, caspase-3 (UniProt P42574 29-277, limits assumed)
- T1 sequence (looked up): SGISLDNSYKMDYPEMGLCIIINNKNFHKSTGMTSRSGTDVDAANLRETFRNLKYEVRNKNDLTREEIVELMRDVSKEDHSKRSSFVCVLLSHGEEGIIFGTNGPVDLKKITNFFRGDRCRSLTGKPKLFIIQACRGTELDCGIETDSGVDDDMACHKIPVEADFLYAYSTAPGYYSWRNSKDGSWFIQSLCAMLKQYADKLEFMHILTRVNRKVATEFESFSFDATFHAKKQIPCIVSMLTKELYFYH
- METHOD_DESCRIPTION: cell-based or functional assay
Numbered stars: 1 amine (or outer) side, 2 acyl side, 3 side chain; on linkers, the order of the positions; unused ones are H or OH. Square brackets hold non-standard residues; d marks the D form. * marks the point of attachment. AAsp = aza-Asp, O=C(N(CC(=O)[*:3])N[*:1])[*:2]; azaAsp = O=C(N(CC(=O)[*:3])N[*:1])[*:2]; PhPr = N-terminal cap as named (PhPr); Hydrocinnamoyl = O=C(CCc1ccccc1)*; Cbz = O=C(OCc1ccccc1)*

[
  {
    "BINDER": "Cbz-Val-[AAsp]-{(trans)‑EP‑CH2CH2Ph} [Cbz-Val-AAsp-(trans)-EP-CH2CH2Ph]",
    "UNIT_OF_MEASUREMENT": "M⁻¹ s⁻¹",
    "k2": 310
  },
  {
    "BINDER": "Cbz-IET[azaAsp]-{(2R,3R)‑EP‑COOEt} [Cbz-Ile-Glu-Thr-AAsp-(2R,3R)-EP-COOEt]",
    "UNIT_OF_MEASUREMENT": "M⁻¹ s⁻¹",
    "k2": 2630
  },
  {
    "BINDER": "Cbz-IET[azaAsp]-{(2S,3S)‑EP‑COOEt} [Cbz-Ile-Glu-Thr-AAsp-(2S, 3S)-EP-COOEt]",
    "UNIT_OF_MEASUREMENT": "M⁻¹ s⁻¹",
    "k2": 4080
  },
  {
    "BINDER": "PhPr-Val-Ala-[AAsp]-{(S,S)‑EP‑CO-Leu-NH2} [PhPr-Val-Ala-AAsp-(S,S)-EP-CO-Leu-NH2]",
    "UNIT_OF_MEASUREMENT": "M⁻¹ s⁻¹",
    "k2": 420
  },
  {
    "BINDER": "PhPr-Val-Ala-[AAsp]-{trans‑EP‑COOCH2Ph} [PhPr-Val-Ala-AAsp-trans-EP-COOCH2Ph]",
    "UNIT_OF_MEASUREMENT": "M⁻¹ s⁻¹",
    "k2": 680
  },
  {
    "BINDER": "Cbz-DEV[azaAsp]-{(S,S)‑EP‑COOCH2Ph} [Cbz-Asp-Glu-Val-AAsp-(S,S)-EP-COOCH2Ph]",
    "UNIT_OF_MEASUREMENT": "M⁻¹ s⁻¹",
    "k2": "1.92e+06"
  },
  {
    "BINDER": "PhPr-Val-Ala-[AAsp]-{(S,S)‑EP‑CONHCH2CH(OH)Ph} [PhPr-Val-Ala-AAsp-(S,S)-EP-CONHCH2CH(OH)Ph]",
    "UNIT_OF_MEASUREMENT": "M⁻¹ s⁻¹",
    "k2": 510
  },
  {
    "BINDER": "Hydrocinnamoyl-Val-Ala-[AAsp]-{(S,S)‑EP‑COOCH2CH2Ph} [PhPr-Val-Ala-AAsp-(S,S)-EP-COOCH2CH2Ph]",
    "UNIT_OF_MEASUREMENT": "M⁻¹ s⁻¹",
    "k2": 2110
  },
  {
    "BINDER": "PhPr-Val-Ala-[AAsp]-{(S,S)‑EP‑CONHCH2CH2Ph} [PhPr-Val-Ala-AAsp-(S,S)-EP-CONHCH2CH2Ph]",
    "UNIT_OF_MEASUREMENT": "M⁻¹ s⁻¹",
    "k2": 1110
  },
  {
    "BINDER": "Cbz-IET[azaAsp]-{(R,R)‑EP‑COOCH2Ph} [Cbz-Ile-Glu-Thr-AAsp-(R, R)-EP-COOCH2Ph]",
    "UNIT_OF_MEASUREMENT": "M⁻¹ s⁻¹",
    "k2": 3120
  },
  {
    "BINDER": "PhPr-Val-Ala-[AAsp]-{(S,S)‑EP‑CO-Phe-NH2} [PhPr-Val-Ala-AAsp-(S,S)-EP-CO-Phe-NH2]",
    "UNIT_OF_MEASUREMENT": "M⁻¹ s⁻¹",
    "k2": 625
  },
  {
    "BINDER": "Hydrocinnamoyl-Val-Ala-[AAsp]-{(S,S)‑EP‑CONHCH2CH3} [PhPr-Val-Ala-AAsp-(S,S)-EP-CONHCH2CH3]",
    "UNIT_OF_MEASUREMENT": "M⁻¹ s⁻¹",
    "k2": 1910
  },
  {
    "BINDER": "PhPr-Val-Ala-[AAsp]-{(S,S)‑EP‑CO-Tyr-NH2} [PhPr-Val-Ala-AAsp-(S,S)-EP-CO-Tyr-NH2]",
    "UNIT_OF_MEASUREMENT": "M⁻¹ s⁻¹",
    "k2": 87
  }
]
